# assay summary: Cytotoxicity against human GES1 cells assessed as inhibition of cell growth measured after 96 hrs by CCK-8 assay
# Assay type: toxicity, cell-based
reported endpoint: IC50 at 96 h

{"molecule": "COC(=O)C1=C(C)N(CC2CCCO2)C(=O)/C1=C\\c1ccc(OCC(=O)NC(C)C)cc1 (centres undefined)", "readout value": "> 1000 µM"}
{"molecule": "C#CCOc1ccc(/C=C2\\SC(Nc3ccc(OCC)cc3)=C(C(=O)OCC)C2=O)cc1OC", "readout value": "> 1000 µM"}
{"molecule": "C/C(=C\\C(=O)Nc1ccccc1C(=O)O)c1ccc2ccccc2c1", "readout value": "206 µM"}
{"molecule": "O=C(C1=C(O)C(=O)N(Cc2ccco2)C1c1cccc(O)c1)c1ccc2c(c1)OCCO2 (centres undefined)", "readout value": "> 1000 µM"}

###

# test target: Telomerase reverse transcriptase (Homo sapiens)
# Sequence (O14746 whole entry): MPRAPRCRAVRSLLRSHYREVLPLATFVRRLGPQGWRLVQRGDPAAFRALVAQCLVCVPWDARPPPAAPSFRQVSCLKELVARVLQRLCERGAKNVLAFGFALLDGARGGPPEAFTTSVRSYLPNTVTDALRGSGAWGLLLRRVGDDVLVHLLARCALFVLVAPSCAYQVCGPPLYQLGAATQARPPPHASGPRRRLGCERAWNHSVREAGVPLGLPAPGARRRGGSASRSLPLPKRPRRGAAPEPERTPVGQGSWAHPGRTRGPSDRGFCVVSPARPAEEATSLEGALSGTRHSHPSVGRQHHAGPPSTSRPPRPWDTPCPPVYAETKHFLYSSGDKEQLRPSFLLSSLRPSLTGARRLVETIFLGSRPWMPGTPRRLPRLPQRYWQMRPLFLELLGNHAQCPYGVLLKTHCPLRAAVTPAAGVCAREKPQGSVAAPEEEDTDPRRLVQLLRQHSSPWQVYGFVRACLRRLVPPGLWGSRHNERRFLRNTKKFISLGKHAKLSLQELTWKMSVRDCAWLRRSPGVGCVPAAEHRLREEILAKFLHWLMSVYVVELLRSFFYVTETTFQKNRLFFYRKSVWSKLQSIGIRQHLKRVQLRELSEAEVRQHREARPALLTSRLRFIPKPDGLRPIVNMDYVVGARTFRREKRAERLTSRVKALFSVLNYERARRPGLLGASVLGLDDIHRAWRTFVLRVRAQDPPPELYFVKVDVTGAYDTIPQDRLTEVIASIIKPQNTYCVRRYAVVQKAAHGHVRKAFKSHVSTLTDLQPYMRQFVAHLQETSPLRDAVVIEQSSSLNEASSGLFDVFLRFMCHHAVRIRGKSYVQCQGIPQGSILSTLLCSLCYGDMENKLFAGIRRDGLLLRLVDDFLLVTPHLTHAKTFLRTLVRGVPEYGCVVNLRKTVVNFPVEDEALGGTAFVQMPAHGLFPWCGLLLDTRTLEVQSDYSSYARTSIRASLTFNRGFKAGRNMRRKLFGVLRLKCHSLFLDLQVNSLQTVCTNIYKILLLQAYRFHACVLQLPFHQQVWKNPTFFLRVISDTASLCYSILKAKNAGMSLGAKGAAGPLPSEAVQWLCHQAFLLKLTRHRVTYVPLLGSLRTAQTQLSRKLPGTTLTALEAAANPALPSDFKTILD
# assay summary: Inhibition of telomerase activity in human HL-60 cells incubated for 96 hrs by TRAP-PCR assay

{"compound": "CCC(CO)NS(=O)(=O)c1cccc2c(S(=O)(=O)NC(CC)CO)cccc12 (centres undefined)", "IC50": "> 10 µM"}
{"compound": "CCOc1ccc(N2C(=O)CC(N(CCc3ccc(S(N)(=O)=O)cc3)C(C)=O)C2=O)cc1 (centres undefined)", "IC50": "> 10 µM"}
{"compound": "O=C(CCS(=O)(=O)c1nc(-c2ccccc2)cc(C(F)(F)F)n1)Nc1cccnc1Cl", "IC50": "> 10 µM"}
{"compound": "O=C(C1=C(O)C(=O)N(CCOCCO)C1c1cccc(O)c1)c1cccs1 (centres undefined)", "IC50": "> 10 µM"}
{"compound": "CCOc1cc(/C=C2/C(=N)N3N=C(C)SC3=NC2=O)ccc1OCCOc1cccc(OC)c1", "IC50": "> 10 µM"}
{"compound": "CCCc1cc(=O)oc2cc(OCC(=O)Nc3ccc(S(N)(=O)=O)cc3)c(Cl)cc12", "IC50": "> 10 µM"}
{"compound": "C/C(=C\\C(=O)Nc1ccccc1C(=O)O)c1ccc2ccccc2c1", "IC50": "0.091 µM"}
{"compound": "COc1ccc(C(=O)C2=C(O)C(=O)N(CCO)C2c2ccc(C)cc2)cc1 (centres undefined)", "IC50": "> 10 µM"}
{"compound": "COc1ccc(-c2ccc(S(=O)(=O)NCCO)cc2)c(S(=O)(=O)NCCO)c1", "IC50": "> 10 µM"}
{"compound": "CCOC(=O)c1cccc(NC(=O)CSc2nnc(-c3cccnc3)n2-c2ccc(OC)cc2)c1", "IC50": "> 10 µM"}
{"compound": "CCOc1cc(C2NC(=O)NC(C)=C2C(=O)OCc2ccc3c(c2)OCO3)ccc1O (centres undefined)", "IC50": "> 10 µM"}
{"compound": "CC(=O)c1cccc(/N=c2\\scc(-c3ccc(S(=O)(=O)N4CCOCC4)cc3)n2CCO)c1", "IC50": "> 10 µM"}
{"compound": "CCOc1cc(C2C(C#N)=C(N)Oc3n[nH]c(C(C)(C)C)c32)ccc1OCCN1CCOCC1 (centres undefined)", "IC50": "> 10 µM"}
{"compound": "Cc1ccc2nc(NCCO)c(/C=C3\\SC(=S)N(Cc4ccc5c(c4)OCO5)C3=O)c(=O)n2c1", "IC50": "> 10 µM"}
{"compound": "COc1ccc(C2C(C(=O)Nc3ccc(Cl)cc3)=C(C)N=C3N=C(CCCO)NN32)c(OC)c1 (centres undefined)", "IC50": "> 10 µM"}
{"compound": "CCn1c(CN2NC(C)=CCC2=O)nnc1SCC(=O)Nc1ccc(S(N)(=O)=O)cc1", "IC50": "> 10 µM"}
{"compound": "CCOc1cc(C2NC(=O)N(C)C(C)=C2C(=O)OCC2CCCO2)cc(Cl)c1O (centres undefined)", "IC50": "> 10 µM"}
{"compound": "CCOC(=O)C1=C(C)N=c2s/c(=C\\c3ccc(O)c(OC)c3)c(=O)n2C1c1ccc(OCC)cc1 (centres undefined)", "IC50": "> 10 µM"}
{"compound": "CC(=O)Nc1ccc(/C=C2\\C=C(C(O)c3ccc(NC(C)=O)cc3)c3ccccc32)cc1 (centres undefined)", "IC50": "> 10 µM"}
